target entity: human TLR8 (Homo sapiens (Human))
Sequence (Q9NR97 27-1041): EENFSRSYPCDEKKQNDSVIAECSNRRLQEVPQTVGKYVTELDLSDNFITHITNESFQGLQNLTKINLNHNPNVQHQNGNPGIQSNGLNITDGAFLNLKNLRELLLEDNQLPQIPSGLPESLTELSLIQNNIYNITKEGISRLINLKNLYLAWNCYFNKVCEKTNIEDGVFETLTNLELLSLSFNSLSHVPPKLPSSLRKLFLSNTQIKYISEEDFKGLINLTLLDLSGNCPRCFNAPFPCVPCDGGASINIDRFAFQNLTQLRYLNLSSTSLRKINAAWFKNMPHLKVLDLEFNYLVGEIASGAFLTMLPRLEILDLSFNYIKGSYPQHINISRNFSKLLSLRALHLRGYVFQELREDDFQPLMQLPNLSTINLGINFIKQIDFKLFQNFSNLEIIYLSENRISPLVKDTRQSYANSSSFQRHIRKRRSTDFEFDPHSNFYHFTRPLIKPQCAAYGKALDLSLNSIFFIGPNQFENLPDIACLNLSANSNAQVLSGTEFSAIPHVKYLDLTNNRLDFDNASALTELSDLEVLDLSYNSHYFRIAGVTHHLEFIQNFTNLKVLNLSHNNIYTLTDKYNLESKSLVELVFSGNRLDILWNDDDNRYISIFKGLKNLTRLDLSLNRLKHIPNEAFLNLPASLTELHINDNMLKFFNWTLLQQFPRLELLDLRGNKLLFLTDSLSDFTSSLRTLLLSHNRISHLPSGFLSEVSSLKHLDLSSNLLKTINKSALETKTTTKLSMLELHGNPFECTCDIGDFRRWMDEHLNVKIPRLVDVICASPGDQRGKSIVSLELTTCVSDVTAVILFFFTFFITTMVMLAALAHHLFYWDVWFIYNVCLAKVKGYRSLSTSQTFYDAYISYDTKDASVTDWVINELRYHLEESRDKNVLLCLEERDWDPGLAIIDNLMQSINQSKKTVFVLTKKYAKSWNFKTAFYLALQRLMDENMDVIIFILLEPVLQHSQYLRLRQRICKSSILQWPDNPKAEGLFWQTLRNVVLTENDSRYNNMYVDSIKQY
test name: TLR8 inhibition reporter assay (HEK-Blue SEAP);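 note: SEAP driven by IFN-β minimal promoter carrying NF-κB and AP-1 sites, compounds dosed 0.05 nM to 50 µM for 22 h, inhibition scaled between agonist-plus-DMSO and reference-inhibitor wells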
assay setup: read-out: TLR8 IC50; HEK-Blue cells overexpressing human TLR8, SEAP reporter, R848 15.9 μM
pIC50: −log10 of the molar value.
assay endpoint: pIC50

Illustrative cases are given below, each with its answer.
Cc1c(-c2[nH]c3ccc(C4CNC4)nc3c2C(C)C)cn2ncnc2c1C [Example 649]
8.00
COc1cc(-c2[nH]c3ccc(C4CN(C)CCO4)nc3c2C(C)C)cn2ncnc12 (stereo not drawn) [Example 661]
8.26
COc1cc(-c2[nH]c3cc(C)c(C4CCN(CC(=O)N(C)C)CC4)nc3c2C(C)C)cn2ncnc12 [Example 584]
7.54
COc1cc(-c2[nH]c3ccc(C4CCC(NCC5(C)COC5)C4)nc3c2C(C)C)cn2ncnc12 (stereo not drawn) [Example 711]
8.54

[P] COc1cc(-c2[nH]c3ccc(OCC4CCN(C)CC4)nc3c2C(C)C)cn2ncnc12 [Example 590]
[Q] Cc1c(-c2[nH]c3ccc(C4CN(CCS(C)(=O)=O)CCO4)nc3c2C(C)C)cn2ncnc2c1C (stereo not drawn) [Example 674]
[R] COCCNC1CCC(c2ccc3[nH]c(-c4cn5ncnc5c(C)c4C)c(C(C)C)c3n2)CC1 (stereo not drawn) [Example 431]
[S] COc1cc(-c2[nH]c3ccc(C4CCC(NC(C)C5CC5)C4)nc3c2C(C)C)cn2ncnc12 (stereo not drawn) [Example 724]
[T] Cc1c(-c2[nH]c3ccc(C4CC(NCC5(C)COC5)C4)nc3c2C(C)C)cn2ncnc2c1C (stereo not drawn) [Example 637]
Rank ascending by pIC50. Rank the items, then write their labels in that order.
Q, R, P, S, T
(Q: 7.32, R: 7.96, P: 8.33, S: 8.70, T: 9.28)
